In this section, each of the molecules is paired with its reported Ki.
# TGT: purified human Factor XIa (Homo sapiens (Human), UniProt P03951)
# Sequence (P03951 388-625): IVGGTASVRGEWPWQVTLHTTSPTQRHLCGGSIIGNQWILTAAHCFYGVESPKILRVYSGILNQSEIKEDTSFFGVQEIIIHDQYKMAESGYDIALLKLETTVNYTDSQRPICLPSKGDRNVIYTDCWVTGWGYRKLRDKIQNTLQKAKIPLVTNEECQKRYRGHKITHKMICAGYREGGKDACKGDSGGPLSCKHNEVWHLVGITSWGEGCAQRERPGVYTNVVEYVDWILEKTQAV
# Sequence (P03951 19-387 partner): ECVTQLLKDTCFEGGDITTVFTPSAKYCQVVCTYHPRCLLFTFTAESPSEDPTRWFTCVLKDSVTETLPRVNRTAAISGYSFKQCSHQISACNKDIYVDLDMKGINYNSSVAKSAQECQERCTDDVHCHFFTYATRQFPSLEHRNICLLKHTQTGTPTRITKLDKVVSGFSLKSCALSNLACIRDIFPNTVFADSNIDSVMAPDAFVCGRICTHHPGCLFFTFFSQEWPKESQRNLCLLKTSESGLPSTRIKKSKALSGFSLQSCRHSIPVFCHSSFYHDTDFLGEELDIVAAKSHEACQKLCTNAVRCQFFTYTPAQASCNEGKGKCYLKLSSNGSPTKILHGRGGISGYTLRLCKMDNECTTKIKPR
# PROTOCOL: Factor XIa enzyme inhibition assay (chromogenic substrate S-2366)
# CONDITION_SUMMARY: read-out: Factor XIa Ki; measured at 25° C.
Counter-ions that a name gives are not always drawn.
REPORTED_ENDPOINT: Ki (nM)

>>> numeric_result("COC(=O)C12CCC(NC(=O)C3c4cccc(-c5cncnc5)c4CCN3C(=O)c3cn(-c4cccc(Cl)c4F)nn3)(CC1)CC2 (stereo not drawn) [Example 142, TFA salt]")
56.2
>>> numeric_result("Cc1ncn(-c2cccc3c2CCN(C(=O)[C@H]2CC(c4cccc(Cl)c4F)=NO2)[C@H]3C(=O)Nc2ccc(C(=O)O)cc2)n1 [Example 251, TFA salt]")
14.7
>>> numeric_result("COC1CCN(c2cccc3c2CCN(C(=O)c2cnn(-c4cccc(Cl)c4)c2)C3C(=O)Nc2ccc(C(=O)O)cc2)CC1 (stereo not drawn) [Example 329, TFA salt]")
26.6
>>> numeric_result("O=C(O)c1ccc(NC(=O)C2c3cccc(-c4cnoc4)c3CCN2C(=O)c2cn(-c3cccc(Cl)c3F)nn2)cc1 (stereo not drawn) [Example 159]")
13.2
>>> numeric_result("COC1CCN(c2cccc3c2CCN(C(=O)c2cnn(-c4ccc5nonc5c4)c2)C3C(=O)Nc2ccc(C(=O)O)cc2)CC1 (stereo not drawn) [Example 331]")
7050
>>> numeric_result("CN(C)C1CCN(c2cccc3c2CCN(C(=O)c2cnn(-c4cccc(Cl)c4F)c2)[C@H]3C(=O)Nc2ccc(C(=O)O)cc2)CC1 (single isomer, unassigned) [Example 51, bis-TFA salt]")
54.5

###

# TGT: purified human plasma kallikrein (Homo sapiens (Human), UniProt P03952)
# Sequence (P03952 391-638): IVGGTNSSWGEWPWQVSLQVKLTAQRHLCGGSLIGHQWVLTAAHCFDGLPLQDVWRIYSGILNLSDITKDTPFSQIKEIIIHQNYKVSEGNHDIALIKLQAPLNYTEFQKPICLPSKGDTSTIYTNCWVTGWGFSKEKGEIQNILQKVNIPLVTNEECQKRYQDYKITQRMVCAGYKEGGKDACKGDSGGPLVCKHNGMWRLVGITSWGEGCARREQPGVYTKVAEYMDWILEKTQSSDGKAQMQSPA
# Sequence (P03952 20-390 partner): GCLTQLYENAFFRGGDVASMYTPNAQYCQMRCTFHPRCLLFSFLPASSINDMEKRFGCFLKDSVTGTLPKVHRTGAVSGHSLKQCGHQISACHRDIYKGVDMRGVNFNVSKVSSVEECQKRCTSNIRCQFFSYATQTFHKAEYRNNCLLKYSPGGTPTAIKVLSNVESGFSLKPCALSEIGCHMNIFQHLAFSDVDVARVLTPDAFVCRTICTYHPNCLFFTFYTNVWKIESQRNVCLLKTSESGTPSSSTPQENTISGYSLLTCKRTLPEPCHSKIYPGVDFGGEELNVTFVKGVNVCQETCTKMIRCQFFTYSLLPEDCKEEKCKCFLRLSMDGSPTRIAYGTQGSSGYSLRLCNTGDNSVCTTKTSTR
# PROTOCOL: Plasma kallikrein enzyme inhibition assay (chromogenic substrate S-2302)
# Type: biochemical
# CONDITION_SUMMARY: measured at 25° C. (no asterisk)
Structures can show the parent of a compound that is named as a salt.
REPORTED_ENDPOINT: Ki (nM)

>>> numeric_result("CN(C)C(=O)C1CCN(c2cccc3c2CCN(C(=O)c2cnn(-c4cccc(Cl)c4F)c2N)C3C(=O)Nc2ccc(C(=O)O)cc2)CC1 (centres unmarked) [Example 317, TFA salt]")
41.1
>>> numeric_result("O=C(O)c1ccc(NC(=O)C2c3cccc(N4CC[C@H](O)C4=O)c3CCN2C(=O)c2cn(-c3cccc(Cl)c3F)nn2)cc1 (some centres unmarked) [Example 196, TFA salt]")
11.9
>>> numeric_result("COC1CCN(c2cccc3c2CCN(C(=O)c2cnn(-c4cccc(Cl)c4)c2)C3C(=O)Nc2ccc(C(=O)O)cc2)CC1 (centres unmarked) [Example 329, TFA salt]")
229
>>> numeric_result("CN(C)C1CCN(c2cccc3c2CCN(C(=O)c2cn(-c4cccc(Cl)c4F)nn2)[C@@H]3C(=O)Nc2ccc(C(N)=O)cc2)CC1 [Example 101, bis-TFA salt]")
1.75
>>> numeric_result("COC1CCN(c2cccc3c2CCN(C(=O)c2cnn(-c4cccc(Cl)c4F)c2)C3C(=O)Nc2ccc(C(=O)O)cc2)CC1 (racemic) [Example 252, TFA salt]")
42.8
>>> numeric_result("O=C(O)c1ccc(NC(=O)[C@@H]2c3cccc(-c4cncnc4)c3CCN2C(=O)c2cn(-c3cccc(Cl)c3F)nn2)cc1")
6.27
>>> numeric_result("O=C(O)c1ccc(NC(=O)C2c3cccc(N4CCN(CC(F)(F)F)CC4=O)c3CCN2C(=O)c2cn(-c3cccc(Cl)c3F)nn2)cc1 (centres unmarked) [Example 197, TFA salt]")
10
>>> numeric_result("CN1CCN(c2cccc3c2CCN(C(=O)C2CC(c4cccc(Cl)c4F)=NO2)C3C(=O)Nc2ccc(C(=O)O)cc2)CC1 (centres unmarked) [Example 202, TFA salt]")
1.11
>>> numeric_result("CN1CCN(c2cccc3c2CCN(C(=O)c2cn(-c4cccc(Cl)c4F)nn2)C3C(=O)Nc2ccc(C(=O)O)cc2)CC1 (centres unmarked) [Example 211, TFA salt]")
0.52
>>> numeric_result("N#Cc1cccc2c1CCN(C(=O)c1cn(-c3cccc(Cl)c3F)nn1)C2C(=O)Nc1ccc(C(=O)O)cc1 (centres unmarked)")
50
>>> numeric_result("O=C(Nc1cccc2c1CCN(C(=O)c1cn(-c3cccc(Cl)c3F)nn1)C2C(=O)Nc1ccc(C(=O)O)cc1)NC1CCCC1 (centres unmarked)")
2.34
>>> numeric_result("O=C(O)c1ccc(NC(=O)[C@@H]2c3cccc(N4CCOCC4)c3CCN2C(=O)c2cn(-c3cccc(Cl)c3F)nn2)cc1 [Example 90, TFA salt]")
5.37
>>> numeric_result("O=C(O)c1ccc(NC(=O)[C@H]2c3cccc(-c4cncnc4)c3CCN2C(=O)c2cn(-c3cccc(Cl)c3F)nn2)cc1")
427
>>> numeric_result("O=C1CCC2(CCN(c3cccc4c3CCN(C(=O)c3cn(-c5cccc(Cl)c5F)nn3)C4C(=O)Nc3ccc(C(=O)O)cc3)CC2)O1 (centres unmarked) [Example 76, TFA]")
15.3
>>> numeric_result("O=C(O)c1ccc(NC(=O)C2c3cccc(-c4cccnc4)c3CCN2C(=O)c2cn(-c3cccc(Cl)c3F)nn2)cc1 (centres unmarked) [Example 33, TFA salt]")
9.54
>>> numeric_result("CN1CCN(c2cccc3c2CCN(C(=O)C2CC(c4c(F)ccc(Cl)c4F)=NO2)C3C(=O)Nc2ccc(C(=O)O)cc2)CC1 (centres unmarked) [Example 205, TFA salt]")
0.64
>>> numeric_result("CN(C)C(=O)C1CCN(c2cccc3c2CCN(C(=O)c2cn(-c4cccc(Cl)c4F)cn2)[C@@H]3C(=O)Nc2ccc(C(=O)O)cc2)CC1 (single isomer, unassigned) [Example 63, TFA salt]")
2.71
>>> numeric_result("COc1cncc(-c2cccc3c2CCN(C(=O)c2cn(-c4cccc(Cl)c4F)nn2)C3C(=O)Nc2ccc(C(=O)O)cc2)c1 (centres unmarked) [Example 36, TFA salt]")
26.7
>>> numeric_result("CN1CCN(c2cccc3c2CCN(C(=O)c2cn(-c4cccc(Cl)c4F)nn2)C3C(=O)Nc2ccc(C(=O)O)cc2)CC1=O (racemic) [Example 274, TFA salt]")
4.87
>>> numeric_result("COC1CCN(c2cccc3c2CCN(C(=O)c2coc(-c4cccc(Cl)c4F)n2)C3C(=O)Nc2ccc(C(=O)O)cc2)CC1 (racemic) [Example 310, TFA salt]")
610
>>> numeric_result("CN(C)C(=O)C1CCN(c2cccc3c2CCN(C(=O)c2cnn(-c4cccc(Cl)c4F)c2)[C@H]3C(=O)Nc2ccc(C(=O)O)cc2)CC1 (single isomer, unassigned) [Example 60, TFA salt]")
698
>>> numeric_result("NCc1cccc2c1CCN(C(=O)c1cn(-c3cccc(Cl)c3F)nn1)C2C(=O)Nc1ccc(C(=O)O)cc1 (centres unmarked) [Example 109, TFA salt]")
2.29
>>> numeric_result("COC1CCN(c2cccc3c2CCN(C(=O)c2cn(-c4cccc(Cl)c4F)nn2)C3C(=O)Nc2ccc3c(c2)CCC(=O)N3C)CC1 (centres unmarked) [Example 189, TFA salt]")
540

###

In this section, each of the compounds is paired with its reported Ki.
# TGT: purified human Factor XIa (Homo sapiens (Human), UniProt P03951)
# PROTOCOL: Factor XIa enzyme inhibition assay (chromogenic substrate S-2366)
# CONDITION_SUMMARY: read-out: Factor XIa Ki; measured at 25° C.
Counter-ions that a name gives are not always drawn.
REPORTED_ENDPOINT: Ki (nM)

>>> numeric_result("O=C(O)c1ccc(NC(=O)C2c3cccc(NCCO)c3CCN2C(=O)c2cn(-c3cccc(Cl)c3F)nn2)cc1 (stereo not shown) [Example 111, TFA salt]")
6.04
>>> numeric_result("CN1CCN(c2cccc3c2CCN(C(=O)c2cc(-c4cccc(Cl)c4)no2)C3C(=O)Nc2ccc(C(=O)O)cc2)CC1 (stereo not shown) [Example 198, TFA salt]")
49.5

###

# TGT: purified human plasma kallikrein (Homo sapiens (Human))
# PROTOCOL: Plasma kallikrein enzyme inhibition assay (chromogenic substrate S-2302)
# Format: biochemical
# CONDITION_SUMMARY: measured at 25° C. (no asterisk)
Where a name gives a salt, the structure may show the parent alone.
// boundary case: Ki equal to 20 nM maps to N; strictly smaller maps to Y

>>> group_label("COC1CCN(c2cccc3c2CCN(C(=O)c2cncc(-c4cccc(Cl)c4F)c2)C3C(=O)Nc2ccc(C(=O)O)cc2)CC1 (stereo not drawn) [Example 323, TFA salt]")
"N"
>>> group_label("CN(C)C(=O)C1CCN(c2cccc3c2CCN(C(=O)c2cnn(-c4cccc(Cl)c4F)c2)C3C(=O)Nc2ccc(C(=O)O)cc2)CC1 (stereo not drawn) [Example 59, TFA salt]")
"Y"
>>> group_label("CN(C)C1CCN(c2cccc3c2CCN(C(=O)c2cnn(-c4cccc(Cl)c4F)c2)[C@@H]3C(=O)Nc2ccc(C(=O)O)cc2)CC1 (single isomer, unassigned) [Example 52, bis-TFA salt]")
"Y"
>>> group_label("CN(C)CCNC(=O)c1ccc(-c2cccc3c2CCN(C(=O)c2cn(-c4cccc(Cl)c4F)nn2)C3C(=O)Nc2ccc(C(=O)O)cc2)cc1 (stereo not drawn) [Example 6]")
"Y"
>>> group_label("CN(C)C1CCN(c2cccc3c2CCN(C(=O)c2cn(-c4cccc(Cl)c4F)nn2)[C@H]3C(=O)Nc2ccc(C(=O)O)cc2)CC1 [Example 48, bis-TFA salt]")
"N"
>>> group_label("CN(C)C(=O)C1CCN(c2cccc3c2CCN(C(=O)c2cnn(-c4cccc(Cl)c4F)c2)[C@@H]3C(=O)Nc2ccc(C(=O)O)cc2)CC1 (single isomer, unassigned) [Example 61, TFA salt]")
"Y"
>>> group_label("O=C(O)c1ccc(NC(=O)C2c3cccc(-c4cnoc4)c3CCN2C(=O)c2cn(-c3cccc(Cl)c3F)nn2)cc1 (stereo not drawn) [Example 159]")
"N"
>>> group_label("CN1CCN(c2cccc3c2CCN(C(=O)c2cn(-c4cccc(Cl)c4F)nn2)[C@H]3C(=O)Nc2ccc(C(=O)O)cc2)CC1=O [Example 288, TFA salt]")
"N"
>>> group_label("Cn1nccc1-c1cccc2c1CCN(C(=O)c1cn(-c3cccc(Cl)c3F)nn1)C2C(=O)Nc1ccc(C(=O)O)cc1 (stereo not drawn) [Example 42]")
"Y"
>>> group_label("Cc1c(C(=O)N2CCc3c(-c4ccc(C(=O)NCCN(C)C)cc4)cccc3C2C(=O)Nc2ccc(C(=O)O)cc2)nnn1-c1cccc(Cl)c1F (stereo not drawn) [Example 7, TFA salt]")
"N"
>>> group_label("CN(C)CCNC(=O)c1ccc(-c2cccc3c2CCN(C(=O)c2cnn(-c4cccc(Cl)c4F)c2)C3C(=O)Nc2ccc(C(=O)O)cc2)cc1 (stereo not drawn) [Example 8, TFA salt]")
"Y"
>>> group_label("COC1CCN(c2cccc3c2CCN(C(=O)c2cnn(-c4cccc(Cl)c4F)c2N)C3C(=O)Nc2ccc(C(=O)O)cc2)CC1 (racemic) [Example 309, TFA salt]")
"N"
